# subject_of_test: human TLR7 (Homo sapiens (Human), UniProt Q9NYK1)
# Sequence (Q9NYK1 27-1049): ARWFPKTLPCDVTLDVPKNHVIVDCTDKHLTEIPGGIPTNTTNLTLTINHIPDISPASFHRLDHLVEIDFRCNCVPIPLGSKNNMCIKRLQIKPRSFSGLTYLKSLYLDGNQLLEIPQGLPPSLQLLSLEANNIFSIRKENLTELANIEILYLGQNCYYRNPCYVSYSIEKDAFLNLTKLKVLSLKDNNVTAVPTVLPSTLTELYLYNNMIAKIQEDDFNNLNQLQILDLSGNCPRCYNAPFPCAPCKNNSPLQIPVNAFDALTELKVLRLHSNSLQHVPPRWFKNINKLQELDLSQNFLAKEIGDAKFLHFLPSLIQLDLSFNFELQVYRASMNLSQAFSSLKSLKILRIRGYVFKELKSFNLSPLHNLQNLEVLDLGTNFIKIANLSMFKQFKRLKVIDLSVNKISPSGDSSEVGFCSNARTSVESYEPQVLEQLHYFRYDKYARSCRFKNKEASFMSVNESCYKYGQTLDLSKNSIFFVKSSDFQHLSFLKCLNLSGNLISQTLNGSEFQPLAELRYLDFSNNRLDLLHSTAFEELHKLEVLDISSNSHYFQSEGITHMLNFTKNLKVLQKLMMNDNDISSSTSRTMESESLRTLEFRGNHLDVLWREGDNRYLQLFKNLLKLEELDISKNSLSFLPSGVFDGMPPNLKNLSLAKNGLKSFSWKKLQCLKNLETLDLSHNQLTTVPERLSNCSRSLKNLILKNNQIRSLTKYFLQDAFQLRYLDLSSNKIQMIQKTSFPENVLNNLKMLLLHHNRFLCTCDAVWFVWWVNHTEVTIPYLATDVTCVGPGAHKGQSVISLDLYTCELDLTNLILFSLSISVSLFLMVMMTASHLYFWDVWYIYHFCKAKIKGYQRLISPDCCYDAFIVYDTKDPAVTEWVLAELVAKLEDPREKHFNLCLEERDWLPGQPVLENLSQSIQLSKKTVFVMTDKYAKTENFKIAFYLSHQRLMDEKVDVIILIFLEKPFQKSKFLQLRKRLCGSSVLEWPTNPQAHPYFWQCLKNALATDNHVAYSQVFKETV
# assay_notes: Test for evaluating the inhibition of the activation of human TLR7 (SEAP reporter, TLR7/NF-κB/SEAPorter HEK293 cell)
# reported_conditions: R-848 200 nmol/L, SEAP reporter
test_readout: IC50 (nM)
Give the value, in units of nM, as a plain number.

Please review the entries below; each comes with its answer.
COCCOc1nc(C)c2nc(-c3cncc(F)c3)n(Cc3ccc(CN4CCOCC4)cc3)c2n1; 300
CCOc1nc(N)c2nc(-c3cncc(F)c3)n(Cc3ccc(CN4CC(C)(O)C4)cc3)c2n1; 62
CCOc1nc(N)c2nc(-c3cncc(F)c3)n(Cc3ccc4c(c3)CN(C)C4)c2n1; 840

Indicate its recorded IC50; the compound in question is `COc1nc(C)c2nc(-c3cccnc3)n(Cc3ccc(C4CCN(C)CC4)cc3F)c2n1`
39

----------
Measured IC50, listed per entry.
# subject_of_test: human TLR7 (Homo sapiens (Human), UniProt Q9NYK1)
# assay_notes: Test for evaluating the inhibition of the activation of human TLR7 (SEAP reporter, TLR7/NF-κB/SEAPorter HEK293 cell)
# reported_conditions: R-848 200 nmol/L, SEAP reporter
Number plus unit, in that order.

Please review the entries below; each comes with its answer.
COc1nc(C)c2nc(-c3cncc(F)c3)n(Cc3ccc(CO)cc3F)c2n1; 169 nM
CCCCOc1nc(C)c2nc(-c3cncc(F)c3)n(Cc3ccccc3)c2n1; 3300 nM

Next:
Indicate its recorded IC50; the compound in question is `COc1nc(C)c2nc(-c3cncc(F)c3)n(Cc3ccc(OC4CCN(C)CC4)cc3F)c2n1`
26 nM

----------
Measured pIC50, listed per entry.
# subject_of_test: human TLR7 (Homo sapiens (Human), UniProt Q9NYK1)
# assay_notes: Test for evaluating the inhibition of the activation of human TLR7 (SEAP reporter, TLR7/NF-κB/SEAPorter HEK293 cell)
# reported_conditions: R-848 200 nmol/L, SEAP reporter
In simple prose, pIC50 is minus the logarithm base ten of a concentration in moles per litre.

Please review the entries below; each comes with its answer.
CCCCOc1nc(N)c2nc(-c3ccc(N(C)C)cc3)n(Cc3ccccc3)c2n1; 4.79
CCOc1nc(N)c2nc(-c3cncc(F)c3)n(Cc3cc(F)ccc3F)c2n1; 6.45
CCOc1nc(C)c2nc(-c3cncc(F)c3)n(Cc3cnn(CC4CN(C)CCO4)c3)c2n1 (centres unmarked) [Example 272]; 6.58

Indicate its recorded pIC50; the compound in question is `COc1nc(C)c2nc(-c3cncc(C#N)c3)n(Cc3ccc(O[C@H]4C[C@H]5CC[C@@H](C4)N5)cc3F)c2n1`
7.43

Indicate its recorded pIC50; the compound in question is `CCOc1nc(N)c2nc(-c3cncc(F)c3)n(Cc3ccc(OCCN4CCCC4)cc3)c2n1`
7.52

Indicate its recorded pIC50; the compound in question is `COc1nc(C)c2nc(-c3cncc(F)c3)n(Cc3ccc(C4=CN5CCC4CC5)c(F)c3)c2n1`
7.21

Indicate its recorded pIC50; the compound in question is `COCCOc1nc(N)c2nc(-c3cncc(S(C)(=O)=O)c3)n(Cc3ccc(CN(C)C)cc3)c2n1`
4.71

Indicate its recorded pIC50; the compound in question is `CCCCOc1nc(N)c2nc(-c3cncc(C)c3)n(Cc3cccc(CN(C)C)c3)c2n1`
6.10
